- Tested on: c-Abl (mouse);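 note: 11-residue human phosphosite peptides and single-mutation variants displayed on the E. coli surface, counted by deep sequencing, each peptide's frequency after selection divided by its frequency in the unselected input library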;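 note: frequency after pTyr selection over input frequency; kinase dosed for 20-30% of maximal phosphorylation in three min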
- test-summary: phosphorylation enrichment, bacterial display (enrichment ratio); higher = better substrate or ligand; peptides without Tyr show the background
reported-property: phosphorylation enrichment
Response field accepts a number only; no unit should be typed.

Use these answered entries as a reference point.
# item-sequence, phosphorylation enrichment
records = [
    ("RRIHRYRGHLW [VHL_Y112_S111R]", 0.382),
    ("SVVVPYEPPKV [TP53_Y220_E224K]", 0.895),
    ("IIGNGYFFRVF [MYBPC3_Y1135_YF]", 0.692),
    ("DEEPPHRGPFC [SASH1_Y551_Y551H]", 0.609),
    ("RSACTYLASHL [PLK3_Y615]", 0.564),
    ("FASVEYQEALS [GALNS_Y461_A459V]", 0.738),
]

IN: I have this sequence here, PSVVAYPKRSQ [MARK3_Y432] , and I need its recorded phosphorylation enrichment.
OUT: 0.522

IN: Can you handle SETSRYLSELF [KCNJ3_Y67_D70E] next?
OUT: 0.535

IN: Request: LTNDRYLATLT [IL6ST_Y396]
OUT: 1.58

IN: Same read-out for RSSKMYFKTRS [LPL_Y329_L330F] ?
OUT: 1.07

IN: And what about the sequence RSSGPYGGGGQ [HNRNPA1_Y341] ?
OUT: 0.643

IN: Would you mind doing YVSSFYHAFSG [ACTN4_Y265] as well?
OUT: 1.28

IN: Cool, now ARQEEYSAMRD [KRAS_Y64_G60R]
OUT: 0.837

IN: Also, KWHREYNSKFV [RICTOR_Y835_YF] please.
OUT: 0.555
